- experimental target: BRD9 (Homo sapiens, UniProt Q9H8M2)
- Sequence (Q9H8M2 whole entry): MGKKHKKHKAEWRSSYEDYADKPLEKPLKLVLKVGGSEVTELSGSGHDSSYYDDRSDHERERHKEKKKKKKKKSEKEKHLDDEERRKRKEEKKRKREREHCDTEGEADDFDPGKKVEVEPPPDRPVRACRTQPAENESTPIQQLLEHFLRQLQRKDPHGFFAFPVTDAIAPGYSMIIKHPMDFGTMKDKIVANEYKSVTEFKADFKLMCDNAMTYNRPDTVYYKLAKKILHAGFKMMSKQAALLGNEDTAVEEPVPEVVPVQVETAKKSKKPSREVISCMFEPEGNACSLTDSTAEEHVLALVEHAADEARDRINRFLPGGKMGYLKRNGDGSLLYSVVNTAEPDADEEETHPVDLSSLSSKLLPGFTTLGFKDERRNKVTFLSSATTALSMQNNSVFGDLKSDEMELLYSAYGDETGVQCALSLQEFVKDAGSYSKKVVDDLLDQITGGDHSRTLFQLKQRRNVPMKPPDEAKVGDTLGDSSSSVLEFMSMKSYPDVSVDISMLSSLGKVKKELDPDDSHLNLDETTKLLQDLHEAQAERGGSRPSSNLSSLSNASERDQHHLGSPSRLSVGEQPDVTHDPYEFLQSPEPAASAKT
- assay method text: Degradation of BRD9 (IF), immunofluorescence in MV4-11 cells, 24 hours (Assay Protocol 2)
- Format: cell-based
- Design: A suspension of MV4-11 cells (ATCC CRL-9591) was prepared; host or cells: MV4-11
- condition notes: Assay protocol 2; BRD9 degradation; read-out: DC50
- Procedure: Assay Protocol 2—Degradation of BRD9 (IF) A suspension of MV4-11 cells (ATCC CRL-9591) was prepared in phenol red-free assay media (IMDM Thermo Scientific 21056023+10% FBS ATCC 302025) and cells were seeded at 20,000 cells per well (45 μL) in sterile black poly-d-lysine coated 384 well plates (Greiner 781948). Compounds were prepared at 1000× final concentration in DMSO, diluted 1:100 in assay media, and 5 μL compound was added to each well of the cell plate. […]
endpoint name: DC50

* COc1cc(-c2cn(C)c(=O)c3[nH]ncc23)cc(OC)c1CN1CCN(C(=O)/C(C#N)=C/C(C)(C)C)CC1 | 25 to 1000 nM
* COc1cc(-c2cn(C)c(=O)c(C)c2C)cc(OC)c1CN1CCN(Cc2cccc3c2CCN(C(=O)/C(C#N)=C/C(C)(C)C)C3C(C)C)[C@@H](C)C1 (mixture of isomers) | 25 to 1000 nM
* COc1cc(-c2cn(C)c(=O)c(C)c2C)cc(OC)c1CN1CCN(Cc2cccc3c2CCN(C(=O)/C(C#N)=C/C2(CF)CC2)C3C)C2(CC2)C1 (mixture of isomers) | < 1.25 nM
* COc1cc(-c2cn(C)c(=O)c(C)c2C)cc(OC)c1CN1CCN(Cc2cccc3c2CCN(C(=O)/C(C#N)=C/C(C)(C)C)[C@@H]3C(C)C)C2(CC2)C1 (single isomer, unassigned) | 25 to 1000 nM
* COc1cc(-c2cn(C)c(=O)c(C)c2C)cc(OC)c1CN1CCN(S(=O)(=O)c2cccc3c2CCN(C(=O)/C(C#N)=C\C(C)(C)C)C3C)CC1 (mixture of isomers) | 25 to 1000 nM
